Listed sequences paired with reported total protein half-life in vivo
Assay: total protein half-life in vivo (active degradation + dilution); higher = more stable protein
Settings: E. coli NCM3722 delta-hslV; growth: N-lim chemostat; doubling time 6 h

sequence.data | total protein half-life in vivo [h]
MNAEKSPVNHNVDHEEIAKFEAVASRWWDLEGEFKPLHRINPLRLGYIAERAGGLFGKKVLDVGCGGGILAESMAREGATVTGLDMGFEPLQVAKLHALESGIQVDYVQETVEEHAAKHAGQYDVVTCMEMLEHVPDPQSVVRACAQLVKPGGDVFFSTLNRNGKSWLMAVVGAEYILRMVPKGTHDVKKFIKPAELLGWVDQTSLKERHITGLHYNPITNTFKLGPGVDVNYMLHTQNK | 3.48
MSEIVIRHAETRDYEAIRQIHAQPEVYCNTLQVPHPSDHMWQERLADRPGIKQLVACIDGDVVGHLTIDVQQRPRRSHVADFGICVDSRWKNRGVASALMREMIEMCDNWLRVDRIELTVFVDNAPAIKVYKKYGFEIEGTGKKYALRNGEYVDAYYMARVK | 4.09
MNKFEDIRGVAFDLDGTLVDSAPGLAAAVDMALYALELPVAGEERVITWIGNGADVLMERALTWARQERATQRKTMGKPPVDDDIPAEEQVRILRKLFDRYYGEVAEEGTFLFPHVADTLGALQAKGLPLGLVTNKPTPFVAPLLEALDIAKYFSVVIGGDDVQNKKPHPDPLLLVAERMGIAPQQMLFVGDSRNDIQAAKAAGCPSVGLTYGYNYGEAIDLSQPDVIYQSINDLLPALGLPHSENQESKND | 2.83
MLDQVCQLARNAGDAIMQVYDGTKPMDVVSKADNSPVTAADIAAHTVIMDGLRTLTPDVPVLSEEDPPGWEVRQHWQRYWLVDPLDGTKEFIKRNGEFTVNIALIDHGKPILGVVYAPVMNVMYSAAEGKAWKEECGVRKQIQVRDARPPLVVISRSHADAELKEYLQQLGEHQTTSIGSSLKFCLVAEGQAQLYPRFGPTNIWDTAAGHAVAAAAGAHVHDWQGKPLDYTPRESFLNPGFRVSIY | 4.6
MYRIVLGKVSTLSAAPLPPGLREQAPQGPRRERWLAGRALLSHTLSPLPEIIYGEQGKPAFAPEMPLWFNLSHSGDDIALLLSDEGEVGCDIEVIRPRANWRWLANAVFSLGEHAEMDAVHPDQQLEMFWRIWTRKEAIVKQRGGSAWQIVSVDSTYHSSLSVSHCQLENLSLAICTPTPFTLTADSVQWIDSVN | 3.56
MTTLAIDIGGTKLAAALIGADGQIRDRRELPTPASQTPEALRDALSALVSPLQAHAQRVAIASTGIIRDGSLLALNPHNLGGLLHFPLVKTLEQLTNLPTIAINDAQAAAWAEFQALDGDITDMVFITVSTGVGGGVVSGCKLLTGPGGLAGHIGHTLADPHGPVCGCGRTGCVEAIASGRGIAAAAQGELAGADAKTIFTRAGQGDEQAQQLIHRSARTLARLIADIKATTDCQCVVVGGSVGLAEGYLALVETYLAQEPAAFHVDLLAAHYRHDAGLLGAALLAQGEKL | 4.19
